# System: F1*sub RNA substrate (template-directed ligation)
# test.description: fraction ligated after 30 min (ligated reads / total reads); higher = more ligase activity; sequences stand for … in GAGACCGCAACTGAAAAGTTGT…AGTTCTGCACGTAGAAGCAAAAGGC
# conditions: 42 °C

input.sequence | fraction ligated
TATCACTGTCTAAGACACTTTGGATGGGTTA [3d1370] | 0.762
TATCACTTGTGTAAGACACTTTGGATGGTTG [3d1807] | 0.115
TATCACTGTCGTAAGCCTTTGGATGGGTTGA [3d1409] | 0.815
TATCACTTGTGTAAGACCTTTGGAGGGTTGA [3d1775] | 0.137
ATCCTTGTCGTAAGACACTTTGATGGGTTGA [3d80] | 0.71
TATCACTGTCGTAAGCACTTTGGTGGGTTGA [3d1413] | 0.11
TATACTTGCGTAAGACACTTTGGTGGGTTGA [3d823] | 0.014
ATCACTTGTCGAAGACACTTTGGAGGGTTGA [3d194] | 0.128
TATCACTTGTCGTAAGCACTTTGATGGGTTG [3d2140] | 0.677
TATATTGTCGTAAGACATTTGGATGGGTTGA [3d769] | 0.632
TATCACTTGCTAAGACACTTTGGTGGGTTGA [3d1608] | 0.11

---

The entries below are paired with their reported fraction ligated.
# System: F1*sub RNA substrate (template-directed ligation)
# test.description: fraction ligated after 30 min (ligated reads / total reads); higher = more ligase activity; sequences stand for … in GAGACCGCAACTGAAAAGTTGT…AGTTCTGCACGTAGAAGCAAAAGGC
# conditions: 42 °C

input.sequence | fraction ligated
TCACTTGTCGTAAGACACTTTGGAGGGTTGA [3d20] | 0.333
TATCACTTGTCGTAAACACTTTGGAGGGTTGA [2d240] | 0.0926
TATCACTTGGTAAGACACTTTGGATGGGTTG [3d1598] | 0.809
TATCACTTGTGTAAGACACTTTGAGGGTTGA [3d1795] | 0.0251
TATCCTTGTCGTAAGACCTTTGGATGGGTTG [3d1089] | 0.762
TATCCTTGCGTAAGACATTTGGATGGGTTGA [3d992] | 0.792
TATCACTTGTCGTAAGACATTGGATGGGTTGA [2d269] | 0.815
ATCACTTGTCGAAGACACTTTGGATGGGTTG [3d197] | 0.795
TATCACTGTCGTAAGACACTTTGAGGGTTGA [3d1449] | 0.0155
TATCACTTGTCGTAAGACACTTTGTGGGTTA [3d2262] | 0.00904
TACACTTGTCGTAAGACATTTGGATGGTTGA [3d711] | 0.113

---

The entries below are paired with their reported fraction ligated.
# System: F1*sub RNA substrate (template-directed ligation)
# test.description: fraction ligated after 30 min (ligated reads / total reads); higher = more ligase activity; sequences stand for … in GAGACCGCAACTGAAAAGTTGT…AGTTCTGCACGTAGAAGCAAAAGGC
# conditions: 42 °C
experimental.endpoint: fraction ligated

input.sequence | target.under.test | experimental.endpoint | observed.measurement
TATCACTTGCGTAAGACACTTGGTGGGTTGA [3d1683] | F1*sub RNA substrate (template-directed ligation) | fraction ligated | 0.139
TATCACTTTCGTAGCACTTTGGATGGGTTGA [3d1508] | F1*sub RNA substrate (template-directed ligation) | fraction ligated | 0.826
TATCACTTGTCGTAAGATTTGGATGGGTTGA [3d2106] | F1*sub RNA substrate (template-directed ligation) | fraction ligated | 0.815
TATCATTTCGTAAGACACTTGGATGGGTTGA [3d1149] | F1*sub RNA substrate (template-directed ligation) | fraction ligated | 0.763
TTCACTTGTCGTAAGCCTTTGGATGGGTTGA [3d453] | F1*sub RNA substrate (template-directed ligation) | fraction ligated | 0.525
TATCACTTGTCGTAAACACTTTGGAGGGTTA [3d2099] | F1*sub RNA substrate (template-directed ligation) | fraction ligated | 0.101
TACACTTGTTAAGACACTTTGGATGGGTTGA [3d617] | F1*sub RNA substrate (template-directed ligation) | fraction ligated | 0.244
TATCCTTGTCGTAGACATTTGGATGGGTTGA [3d1047] | F1*sub RNA substrate (template-directed ligation) | fraction ligated | 0.768
TATACTTGTCGTAAGACACTTTGAGGGTTGA [3d934] | F1*sub RNA substrate (template-directed ligation) | fraction ligated | 0.0304
TATCACTTTCGTAAGAACTTTGGATGGGTTG [3d1546] | F1*sub RNA substrate (template-directed ligation) | fraction ligated | 0.868
TACATTGTGTAAGACACTTTGGATGGGTTGA [3d550] | F1*sub RNA substrate (template-directed ligation) | fraction ligated | 0.0317

---

# Test system: F1*sub RNA substrate (template-directed ligation)
# test.description: fraction ligated after 30 min (ligated reads / total reads); higher = more ligase activity; sequences stand for … in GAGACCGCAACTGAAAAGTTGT…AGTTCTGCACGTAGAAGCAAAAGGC
# conditions: 42 °C

input.sequence | target.under.test | fraction ligated
TACACTTGTCGTAAGACCTTTGGATGGTTGA [3d704] | F1*sub RNA substrate (template-directed ligation) | 0.358
TATCATGTCGTAAACACTTTGGATGGGTTGA [3d1128] | F1*sub RNA substrate (template-directed ligation) | 0.765
TATACTTGTCGTAAGACACTTTGGATGGGTTGA [1d4] | F1*sub RNA substrate (template-directed ligation) | 0.791
TATCACTTGTCGTAGACACTTGGATGGGTTA [3d2040] | F1*sub RNA substrate (template-directed ligation) | 0.757
TATCACTTGTCGTAAGAACTTGGATGGTTGA [3d2163] | F1*sub RNA substrate (template-directed ligation) | 0.0536
TATCACTTTCGTAAGACACTTTGGTGGGTTG [3d1577] | F1*sub RNA substrate (template-directed ligation) | 0.0247

---

# Test system: F1*sub RNA substrate (template-directed ligation)
# test.description: fraction ligated after 30 min (ligated reads / total reads); higher = more ligase activity; sequences stand for … in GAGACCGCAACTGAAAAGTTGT…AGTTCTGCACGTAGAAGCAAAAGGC
# conditions: 42 °C
experimental.endpoint: fraction ligated

input.sequence | observed.measurement
TATCACTTGTCGTAAAACTTTGGATGGTTGA [3d2064] | 0.185
TATCACTTGTCGTAAGCACTTTGATGGTTGA [3d2138] | 0.157
TATCATTGTCGTAAGACACTTTGATGGGTTA [3d1280] | 0.158
TATCACTTGTGTAAGACACTTTGATGGGTTG [3d1798] | 0.544
TATCACTTGTCGTAAGACATTTGGGGGTTGA [3d2220] | 0.0157
TATATTGCGTAAGACACTTTGGATGGGTTGA [3d760] | 0.355
TATCACTTTCGTAAGAACTTTGGATGGTTGA [3d1544] | 0.643
TATCACTTGTCGTAAGACACTTGGTGGGTTA [3d2246] | 0.0114
TATCACTTGTCGTAAGAACTTTGGATGGGTTA [2d260] | 0.799
TTCACTTGTCGTAAGCACTTTGGATGGGTTGA [2d36] | 0.771
TATCACTTGCGTAGACACTTTGGTGGGTTGA [3d1634] | 0.0947
TACACTGTCGTAAGACACTTTGATGGGTTGA [3d579] | 0.279
TATCACTGCGTAAGACATTTGGATGGGTTGA [3d1335] | 0.854
TATCCTTGTCGTAAGACCTTTGATGGGTTGA [3d1084] | 0.762
TATACTTGTCGAAGACACTTTGGATGGGTTGA [2d76] | 0.761
TATCACTTGTCTAAGAACTTTGGATGGTTGA [3d1861] | 0.166
TATCATGTCGTAAGACACTTTGGTGGGTTGA [3d1135] | 0.523
TATCACTTGTCGAAGACACTTTGGAGGTTGA [3d1974] | 0.0837
TATCCTTGTCGTAAGACATTTGGATGGGTTG [3d1096] | 0.772
ATCACTTGCGTAAGACACTTTGGATGGGTTGA [2d8] | 0.836
TATCACTTGTCGTAGCACTTTGGATGGGTTA [3d2011] | 0.728
TACACTTTCGTAAGACACTTTGGATGGGTTA [3d599] | 0.00822
ACACTTGTCGTAAGACACTTTGGATGGGTTG [3d45] | 0.739
TTACTTGTCGTAAGACACTTTGATGGGTTGA [3d292] | 0.0869
